Test system: CASK
Condition notes: concentration: 1 μM, replicates: in singlicate; n = 1;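 also: KINOMEscan kinase panel screen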
Parameter: %Inh (%)
Response body: numeric value in %, unit text excluded.

Record summary for COC(=O)c1c(-c2ccccc2)c2cc(Cl)ccc2c(=O)n1Cc1ccc(S(C)(=O)=O)cc1 : reported %Inh = 0

Record summary for COc1ccc(NC(=O)Nc2ccc(C)c(-c3ccc(C(=O)Nc4ccncc4)cc3)c2)cc1 : reported %Inh = 0

Record summary for COC(=O)c1cccc(NC(=O)NCCNc2ccnc(Nc3ccc(F)cc3)n2)c1 : reported %Inh = 0

Record summary for COc1ccc(-c2nc3n(c2-c2ccncc2)CCC3)cc1 : reported %Inh = 0

Record summary for CC(C)(C)OC(=O)NC1CCCN(c2cc(-c3ccc4c(N)n[nH]c4c3)nc(N)n2)C1 (stereo not drawn) : reported %Inh = 2

Record summary for COc1ccc(-c2oc3ncnc(N)c3c2-c2ccc(OC)cc2)cc1 : reported %Inh = 0

Record summary for N#Cc1ccc(Oc2ccc(Nc3ncnc4cc[nH]c34)cc2Cl)cc1 : reported %Inh = 0

Record summary for COc1cc2ncnc(Nc3ccc(OCc4ccccc4Br)c(Cl)c3)c2cc1OC.Cl : reported %Inh = 0

Record summary for Cc1ccc(O)cc1Nc1cc(C(F)(F)F)nc2ccc(-c3ccncc3)cc12 : reported %Inh = 1

Record summary for COc1ccc(Nc2nccc(N3CCC(NC(=O)c4cccc(NC(C)=O)c4)C3)n2)cc1 (stereo not drawn) : reported %Inh = 13

Record summary for O=C(Nc1n[nH]c2nc(-c3ccco3)c(Br)cc12)c1ccc(CN2CCCC2)cc1.O=C(O)[C@H](O)[C@@H](O)C(=O)O : reported %Inh = 0

Record summary for CSc1nn2c(=O)cc(N3CCOCC3)nc2n1Cc1cccc(Cl)c1Cl : reported %Inh = 2

Record summary for Cc1cccc(-c2nc(Nc3ccc4[nH]nnc4c3)c3ccccc3n2)n1 : reported %Inh = 4

Record summary for CCc1nc(-c2cccc(C)c2)c(-c2ccnc(NC(=O)c3ccccc3)c2)s1 : reported %Inh = 0

Record summary for Cl.c1ccc(Cn2ncc3cc(Nc4ncnc5ccccc45)ccc32)cc1 : reported %Inh = 5

Record summary for CS(=O)(=O)CCNCc1nc(-c2ccc3ncnc(Nc4ccc(OCc5cccc(F)c5)c(Cl)c4)c3c2)cs1.Cl : reported %Inh = 0

Record summary for FC(F)(F)c1ccc(-c2nn3ncccc3c2-c2ccnc(Nc3cccc(C(F)(F)F)c3)n2)cc1 : reported %Inh = 0

Record summary for NC(=O)c1sc(-n2cnc3ccccc32)cc1OCc1ccccc1F : reported %Inh = 49

###

Tested on: PAK7
Condition notes: concentration: 1 μM, replicates: in singlicate; n = 1
Tick Met if %Inh is 10% or greater. Tick Not met if %Inh is less than 10%.

In plain terms: is recorded %Inh at least 10% for Cc1ccc(NC(=O)c2cccc(C#N)c2)cc1-c1ccc(C(=O)Nc2ccncc2)cc1 ? Not met

In plain terms: is recorded %Inh at least 10% for Nc1nc(-c2ccccn2)c(-c2ccnc3ccccc23)s1 ? Met

In plain terms: is recorded %Inh at least 10% for FC(F)(F)c1cc(Nc2nccc(-c3c(-c4ccc(Cl)cc4)nn4ncccc34)n2)ccc1Cl ? Not met

In plain terms: is recorded %Inh at least 10% for Nc1n[nH]c2nnc(-c3ccccc3)cc12 ? Not met

In plain terms: is recorded %Inh at least 10% for Cl.c1ccc(Cn2ccc3cc(Nc4ncnc5ccccc45)ccc32)cc1 ? Met

In plain terms: is recorded %Inh at least 10% for Cn1ccc2ncnc(Nc3ccc(Oc4cccc(Cl)c4)c(Cl)c3)c21 ? Not met

In plain terms: is recorded %Inh at least 10% for O=C(CCO)NCCn1ccc2ncnc(Nc3ccc(Oc4cccc(C(F)(F)F)c4)c(Cl)c3)c21 ? Not met

In plain terms: is recorded %Inh at least 10% for Cc1cccc(-c2nc(Nc3ccc4[nH]nnc4c3)c3ccccc3n2)n1 ? Not met

###

Tested on: CLK3
Condition notes: concentration: 1 μM, replicates: in singlicate; n = 1
Parameter: %Inh (%)
Response body: numeric value in %, unit text excluded.

Record summary for COc1ccc(Nc2nccc(N3CCC(NC(=O)Nc4ccc5c(c4)OCO5)C3)n2)cc1 (stereo not drawn) [GSK1379745] : reported %Inh = 9

Record summary for O=C(CCO)NCCn1ccc2ncnc(Nc3ccc(Oc4cccc(C(F)(F)F)c4)c(Cl)c3)c21 : reported %Inh = 0

Record summary for COC(=O)c1c(-c2ccccc2)c2cc(Cl)ccc2c(=O)n1Cc1ccc(S(C)(=O)=O)cc1 : reported %Inh = 10

Record summary for C[C@H]1CC[C@@H](C(=O)Nc2ccccc2)CN1c1cc(-c2ccc3c(N)n[nH]c3c2)nc(N)n1 [GSK2283293] : reported %Inh = 0

Record summary for COc1ccc(NC(=O)c2ccc(-c3cc(-c4nnc(C)o4)ccc3C)cc2)cc1 [GW595885] : reported %Inh = 94.8

Record summary for O=C(Nc1n[nH]c2nc(-c3ccco3)c(Br)cc12)c1ccc(CN2CCCC2)cc1.O=C(O)[C@H](O)[C@@H](O)C(=O)O [SB-742352] : reported %Inh = 0

Record summary for Cn1ccc2ncnc(Oc3ccc(NC(=O)Nc4cccnc4)c(Cl)c3)c21 : reported %Inh = 4

Record summary for Fc1cccc(COc2ccc(Nc3ncnc4cc[nH]c34)cc2Cl)c1 : reported %Inh = 10

Record summary for Nc1nc(-c2ccccn2)c(-c2ccnc3ccccc23)s1 [GW548057] : reported %Inh = 30

Record summary for FC(F)(F)c1ccc(-c2nn3ncccc3c2-c2ccnc(Nc3cccc(C(F)(F)F)c3)n2)cc1 [GW828205] : reported %Inh = 0

Record summary for O=C(NCCCN1CCCC1=O)c1cnc(NCc2cc(Cl)ccc2Cl)nc1NC1CCNCC1 : reported %Inh = 0

Record summary for Cl.c1ccc(Cn2ccc3cc(Nc4ncnc5ccccc45)ccc32)cc1 [GW275568] : reported %Inh = 59

Record summary for Clc1ccc(-c2cc(-c3c[nH]nc3-c3ccccn3)ccn2)cc1 [GW681251] : reported %Inh = 4

Record summary for COc1cc2c(Nc3cccc(NC(=O)c4ccccc4)c3)ncnc2cc1OCCCN1CCOCC1 [GSK223810] : reported %Inh = 0

Record summary for CC(C)N1CCC(n2cnc(-c3ccc(F)cc3)c2-c2ccnc(N)n2)CC1 [SB-223132] : reported %Inh = 10

Record summary for Cc1cccc(-c2nc(Nc3ccc4[nH]nnc4c3)c3ccccc3n2)n1 [GW867587] : reported %Inh = 0

Record summary for CCC(CC)(CC)n1cnc2c(N)ncnc21 [SKF-97620] : reported %Inh = 6

Record summary for CNc1nccc(-c2c(-c3ccc(F)cc3)ncn2CCCN2CCOCC2)n1 [SB-222516] : reported %Inh = 18

###

System: CAMK2D
Condition notes: concentration: 1 μM, replicates: in singlicate; n = 1
Parameter: %Inh (%)
Response body: numeric value in %, unit text excluded.

Record summary for C[C@H]1CC[C@@H](C(=O)Nc2ccccc2)CN1c1cc(-c2ccc3c(N)n[nH]c3c2)nc(N)n1 : reported %Inh = 3

Record summary for O=C(Nc1ccccc1F)NC1CCN(c2ccnc(Nc3ccc(F)cc3)n2)C1 (stereo not drawn) : reported %Inh = 0

Record summary for Nc1n[nH]c2nnc(-c3ccccc3)cc12 : reported %Inh = 2

Record summary for Clc1cccc(-c2nc(Nc3ccncc3)c3ccccc3n2)c1 : reported %Inh = 0

Record summary for Cl.c1ccc(Cn2ncc3cc(Nc4ncnc5ccccc45)ccc32)cc1 : reported %Inh = 31

Record summary for CCC(CC)(CC)n1cnc2c(N)ncnc21 : reported %Inh = 0

Record summary for COc1ccc(NC(=O)Nc2ccc(C)c(-c3ccc(C(=O)Nc4ccncc4)cc3)c2)cc1 : reported %Inh = 0

Record summary for C[C@@H]1CCN(C(=O)CO)C[C@@H]1N(C)c1ncnc2[nH]ccc12 : reported %Inh = 0

Record summary for FC(F)(F)c1cc(Nc2nccc(-c3c(-c4ccc(Cl)cc4)nn4ncccc34)n2)ccc1Cl : reported %Inh = 0

###

Tested on: STK36
Condition notes: concentration: 1 μM, replicates: in singlicate; n = 1
Parameter: %Inh (%)
Response body: numeric value in %, unit text excluded.

Record summary for CNc1nccc(-c2c(-c3ccc(F)cc3)ncn2C2CCN(C)CC2)n1 [SB-222903] : reported %Inh = 3

Record summary for CC(C)(C)c1ccc(-n2cnc3c(N)ncnc32)cc1 [SKF-97263] : reported %Inh = 11

Record summary for COc1ccc(NC(=O)Nc2ccc(C)c(-c3ccc(C(=O)Nc4ccncc4)cc3)c2)cc1 [GSK1398475] : reported %Inh = 0

Record summary for COc1ccc(Nc2nccc(N3CCC(NC(=O)Nc4ccc5c(c4)OCO5)C3)n2)cc1 (stereo not drawn) [GSK1379745] : reported %Inh = 0

Record summary for Clc1cc(Nc2ncnc3cc[nH]c23)ccc1OCc1ccccn1 : reported %Inh = 12

Record summary for CCCc1ccc(S(=O)(=O)NC2CCN(c3ccnc(Nc4ccc(OC)cc4)n3)C2)cc1 (stereo not drawn) [GSK1379737] : reported %Inh = 15

Record summary for Cl.Cn1ccc(-c2cccc(Nc3ccnc4cc(-c5nccs5)ccc34)c2)n1 [GW525701] : reported %Inh = 0

Record summary for Cc1ccc(O)cc1Nc1cc(C(F)(F)F)nc2ccc(-c3ccncc3)cc12 [GW630823] : reported %Inh = 0

Record summary for CS(=O)(=O)CCNCc1nc(-c2ccc3ncnc(Nc4ccc(OCc5cccc(F)c5)c(Cl)c4)c3c2)cs1.Cl [GW583340] : reported %Inh = 0
